This collection of values is drawn from paper PMC8769072.

system-tested: ZMYND11 480-602, Q15326
Sequence (Q15326 480-602): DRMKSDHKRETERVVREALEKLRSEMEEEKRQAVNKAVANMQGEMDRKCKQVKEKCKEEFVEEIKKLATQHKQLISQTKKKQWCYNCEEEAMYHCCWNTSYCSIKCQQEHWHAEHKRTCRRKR
measurement-type: selected by phage display

>>> meas_value("LISDLDEGPPVLTPVE [ZHX1, Q9UKY1]")
"confidence 4 (active)"
>>> meas_value("FERENEGMPSLIAESN [ARID4A, P29374]")
"confidence 2 (active)"
>>> meas_value("QFHPTPPPLQHYTLED [CBFA2T2, O43439]")
"confidence 2 (active)"
>>> meas_value("PPMPQLTPQIPLTGFV [ABI1, Q8IZP0]")
"confidence 2 (active)"
>>> meas_value("GMPALESVTIGDDIWD [TDRD5, Q8NAT2]")
"confidence 2 (active)"
>>> meas_value("DSRDQMPVLEKAIDLP [SETBP1, Q9Y6X0]")
"confidence 2 (active)"

Return value of selected by phage display for input VPVLEPQLPGSVFDPI [BRD4, O60885] , no commentary.
confidence 2 (active)

Return value of selected by phage display for input QLLMPTLESETEAAVP [PPRC1, Q5VV67] , no commentary.
confidence 4 (active)

Return value of selected by phage display for input ENPPSYYSIFNYGRTP [TMEM171, Q8WVE6] , no commentary.
confidence 3 (active)

Return value of selected by phage display for input SMHRDGPPLLENAHSS [SOS1, Q07889] , no commentary.
confidence 2 (active)

Return value of selected by phage display for input SAISEVTQPPSYEDAV [MYOCD, Q8IZQ8] , no commentary.
confidence 3 (active)

Return value of selected by phage display for input MPQLDAAGDRLELRSE [C2orf81, A6NN90] , no commentary.
confidence 2 (active)
